- Tested on: K4 kissing-loop RNA reporter;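 note: bound reporter read as fluorescence of individual clusters on recovered sequencing chips by microscopy, with normalized cluster intensities fitted with a binding model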
- Test Method Notes: apparent KD of K4 kissing-loop reporter; higher = weaker reporter binding
- Run Parameters: Eterna round: R107; input ligand: FMN 200 uM
Classify by measured apparent KD of K4 kissing-loop reporter: True if it is equal to or exceeds 200 nM, False if it is smaller.

Q) Check if apparent KD of K4 kissing-loop reporter >= 200 nM (inclusive). Item: GGUGCUGUUUGUGCCGCCUUCCUCGUUCCUCGAGGACCGGUACGGCCGCCACUCGAGUGAUGUUUGGGUAGCGAUCCCUGCUAGU [Bdazzled - #13 Exc. Tryptophan A]
A) True

Q) Check if apparent KD of K4 kissing-loop reporter >= 200 nM (inclusive). Item: AAAUAAAGCAGUCACCCAGUGAUGUUGGAAGGAGCGUGCGAAAGCACAGGUAGGUCGCCGAUAGGACAAAGUCCAAGUGGCUGCA [#SwitchBubble 30 #K4Early]
A) True

Q) Check if apparent KD of K4 kissing-loop reporter >= 200 nM (inclusive). Item: GGUGACAACCAGAGGUGAUGUAUAGAAUCGCGAGGACCGGUACGGCCGCCACUCGUGAAGAGAAAGGAGUGAUGUUCCGUAAUGG [Kazoo C6]
A) True

Q) Check if apparent KD of K4 kissing-loop reporter >= 200 nM (inclusive). Item: GGAUAGGAUAGAGGAUAUGGAGAACACAAAAGUGACUUGUUGUGUUUAUCCAUAGGGAGUGAUGUUCCAGAAGGCUGUCCUAUCG [MatMod 24 - Jieux - Exclusion - FMN B]
A) True

Q) Check if apparent KD of K4 kissing-loop reporter >= 200 nM (inclusive). Item: GCUAUGGUUGGAAGGAGCGUUGAAUUGUUGGUAAGAGUGAUGUUCGAUAGUGGAUAGUUGUAGCAGGUAGGUCGCCAACUAUAGC [KL-Arg B27]
A) True

Q) Check if apparent KD of K4 kissing-loop reporter >= 200 nM (inclusive). Item: GAUUGUGAUGGAAACAUCGCAAUCUCUGAAGGAGCGCGUGAAAACGCAGGUAGGUCGCAGGACGACAAAGACAGUGAUGUUGUCA [Ex Arginine A K4 1]
A) True

Q) Check if apparent KD of K4 kissing-loop reporter >= 200 nM (inclusive). Item: CUUCGAUUAACAGAUACCAGUCACUUGGGAGCCACACACAAGUGAGUGAUGUUCACUUGUGACCCUUGGCAGCUGUUAGUCGAAG [#04 K4 Theophylline B Exclusion]
A) False

Q) Check if apparent KD of K4 kissing-loop reporter >= 200 nM (inclusive). Item: GCGGACAUUCGCAGUGAUGUUGCGACGGAAGGAGCGGAUGAAAAUCCAGGUAGGUCGCCGACAAAAUUAAUUUUAAUGUGUUCGC [#03 K4 Arginine A Same State]
A) True

Q) Check if apparent KD of K4 kissing-loop reporter >= 200 nM (inclusive). Item: AUUAUAUAGGCGGCCGCCACUAGUGAUGUUAGUGAUGUCAUAAUAUAAUGAUAAAUUAUAUUGCGUAGGACCGGGCCUAAAUAUU [#15 K4 Tryptophan B Exclusion]
A) False

Q) Check if apparent KD of K4 kissing-loop reporter >= 200 nM (inclusive). Item: GAUCUGAACGAAAGUUCGGAUCAGUCCGAUACCAGUAUGGAUUCAUACCCUUGGCAGCGGUUAUCUGCUAUGGAGUGAUGUUCCA [Theophylline A K4 11]
A) True

Q) Check if apparent KD of K4 kissing-loop reporter >= 200 nM (inclusive). Item: `UGGAGUUGACGAAAAGUCAACUCCAGAGAAGGAGCGGACGAAAGUCCAGGUAGGUCGCUCACUACCAGUGAUGUUGGUACUAAAA`
A) False

Q) Check if apparent KD of K4 kissing-loop reporter >= 200 nM (inclusive). Item: CGUUUAUAGCAGGAUACCAGUACCCAUAAAGUACGUUAAUAGUAGAGUGAUGUUCUAAAGUACCCUUGGCAGCUUAGAGUGAGUG [ExTheophylB.Q]
A) False

Q) Check if apparent KD of K4 kissing-loop reporter >= 200 nM (inclusive). Item: `AGUCCACUCUAAAGAGUGGACCUAAGGGAUACCAGUGAUGUUGGUCACCCUUGGCAGCCCGCUGUCAUCGAUAAAGAUGGCAGGA`
A) False

Q) Check if apparent KD of K4 kissing-loop reporter >= 200 nM (inclusive). Item: UGUCAUUGGUCGGCCGCCACUUUAUAUGGAGUGAUGUUUUGUAAAUUGUGUUGAAAGGUGUGGUAAAGGACCGGGACCGAUGACU [FiskerMod 26 - Jieux - Same State - Tryptophan B]
A) True

Q) Check if apparent KD of K4 kissing-loop reporter >= 200 nM (inclusive). Item: UGUGUACCGGGAAGGAGCGUGAAUGAGAAUGGAUAUAGUGAUGUUAUGUAUACGAACGAAUCGCAGGUAGGUCGCCCGGAUCCCU [SSArgB.Z]
A) True

Q) Check if apparent KD of K4 kissing-loop reporter >= 200 nM (inclusive). Item: UUUUGGUACUGAGGAUAUUCGACGAAAUAUAGUGAUGUUAUAUAAGGAGGAGGAGGGUGGGAGGAAGGAGAAGGCAGAAGAGGAG [#06 K4 FMN B Exclusion]
A) True

Q) Check if apparent KD of K4 kissing-loop reporter >= 200 nM (inclusive). Item: CAUACGCAUGGAGGAUAUGAGAUUUUUCAUAUUAUUUUUUAUUCUCAGUGAUGUUGGGAUUUAUAAUCAGAAGGCCAUGUGUAUG [Ex FMN B 11]
A) False

Q) Check if apparent KD of K4 kissing-loop reporter >= 200 nM (inclusive). Item: AGCGGCCAGUCGGCCGCCACUCCGGGCAGUGAUGUUGCGAAGUGUCUACUAGAGUGAUGUUCUAAGAGGACCGGGACUGACGUAU [Exclusion Tryptophan B Gf 11]
A) True

Q) Check if apparent KD of K4 kissing-loop reporter >= 200 nM (inclusive). Item: UAGUCAUACAGAGGAUAUCGUAUGAGUGAUGUUCAUACGACAUAAUCAAAUUGUAUUGAUGUUCGACGAGAAGGCUGUAUGACUA [FMN B Ex t1]
A) True

Q) Check if apparent KD of K4 kissing-loop reporter >= 200 nM (inclusive). Item: UAUAGAGUGACGGCCGCCACUAUUGUGAUUUAAUUGUUAGAGUGAUGUUUUGUUGUUUGAUUUUGUAGGACCGGGUUAUAUGUUA [ecewzmullin]
A) True

Q) Check if apparent KD of K4 kissing-loop reporter >= 200 nM (inclusive). Item: CUGUCAUGGGAUGGGCCAGUGAUGUUGGGCCGAGGACCGGUACGGCCGCCACUCGUAGCACAGUGCGCGCUAGCAUUGUACGUCA [theeternabot_exclusion_KL_Trp_A_35]
A) True

Q) Check if apparent KD of K4 kissing-loop reporter >= 200 nM (inclusive). Item: CGCCAGGGUGAAGGAUAUCCGUCUGAUUGAGCGCAGUGAUGUUGCGCGAUUCGUUCAUCGCUCGGAGGAGAAGGUCAGAUAACUC [theeternabot_sameState_KL_FMN_B_3]
A) False

###

Assignment: determine reported apparent KD of MS2 coat protein for the given sequences.
- Test system: MS2 coat protein
- Test Method Notes: apparent KD of MS2 coat protein; designed switch direction (-1 OFF switch, 1 ON switch): -1; higher = weaker reporter binding
- Run Parameters: input ligand: none
Your answer is read as µM, so omit the unit and give the number.

Q) I would be grateful if you could share the reported apparent KD of MS2 coat protein for GUCUGCACGCUGCGGUCCUACAUGAGGAUCACCCAUGUGGUCUGGUGGCGUGGGUCGCCGGACUUGGCUCGUCUUGG [salish99_S_TOV1_R5_048] (Eterna round: R97, puzzle: Sensor, turn-off variant 1) .
A) 0.0147

Q) I would be grateful if you could share the reported apparent KD of MS2 coat protein for AGAUGGAUUGCUAGAAAACUAGUAAUUCAUCAAUCAAGCACAUGAGGAUCACCCAUGUCUUAGAGUACGUGAGUACA [JL gull wing 9] (Eterna round: R96, puzzle: Sensor v2, turn-off variant 2) .
A) 0.016

Q) I would be grateful if you could share the reported apparent KD of MS2 coat protein for CUGGACCCGGCAGGAUAUAUUGUGGGCGGGCGUGGAACGACAUGAGGAUCACCCAUGUGAUUGAGGUAGAAGGGCCGAGAGGUC [Excl-NG2-LRO20] (Eterna round: R96, puzzle: Exclusion NG 2) .
A) 0.0477

Q) I would be grateful if you could share the reported apparent KD of MS2 coat protein for UUCAUGUGAGGAUAUUAGUAGUAAAUAAAUAAAAUUAUUACUGAGAAGGUACAUGAGGAUCACCCAUGUUCCUU [Salish 062 v22] (Eterna round: R97, puzzle: Exclusion 4) .
A) 0.0139

Q) I would be grateful if you could share the reported apparent KD of MS2 coat protein for AAUUAGUGUGUGAGGAUAUUGGUGGAAUGACUUAUUAAGAAGGCACAUGAGGAUCACCCAUGUGGGAAGUCACG [JR_BMEx4_Sub014] (Eterna round: R97, puzzle: Brourd's mod of Exclusion 4) .
A) 0.012

Q) I would be grateful if you could share the reported apparent KD of MS2 coat protein for GCGCACCUACCAAAAGGUAGGCCAACAUGAGGAUCACCCAUGUAGGAUAUCGAUUGCUUUGCAGUCGAGAAGGACAUGAUGCGC [JL ENG3 3.80 Mod 8] (Eterna round: R96, puzzle: Exclusion NG 3) .
A) 0.0216

Q) I would be grateful if you could share the reported apparent KD of MS2 coat protein for GCAAGCUUUUUCAAUAAGAACAUGAGGAUCACCCAUGUUUAAGGUAUUACUUUUGGGCUCUUUAGUGCUCGUCUUAU [JR_STOV1_Sub035] (Eterna round: R97, puzzle: Sensor, turn-off variant 1) .
A) 0.0182

Q) I would be grateful if you could share the reported apparent KD of MS2 coat protein for AUAUACGGAGGAUAUACUUGAGGAUCACCCAAGUGGAGUCCCGUUUGGGCGGUAAAUAGUAGAAGGCCGUCCCA [jl-ex3-4.44 ViennaUCT mod] (Eterna round: R97, puzzle: Exclusion 3) .
A) 0.0123

Q) I would be grateful if you could share the reported apparent KD of MS2 coat protein for GUUAACGUAGGAUAUUAGUACAUGAACAUGAGGAUCACCCAUGUGAGGUGGGUCUAAGAAUAAGAAGGGCGAAGAA [EX5 #26] (Eterna round: R97, puzzle: Exclusion 5) .
A) 0.312
